Data origin, for the record: PubChem BioAssay AID1845201

# Tested on: COR L88 complex tumor spheroid viability
# Protocol: Anticancer human tumor COR L88 cell line growth inhibition; active means viability on the fitted dose curve at most 10% of control; inactive means the rest;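 further: compound exposure lasted 7 days before viability readout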
# Test parameters: second compound 0.0003 µM; first compound 3.16 µM
The categories you may choose from are yes (1) (active), no (0) (inactive)

| Compound | Label value |
| --- | --- |
| CC1COCCN1c1cc(-c2ccnn2C)c2ccnc(-c3ccn[nH]3)c2n1 (stereo unspecified) + COc1cc2c(cc1O)CCNC21CSC2c3c(OC(C)=O)c(C)c4c(c3C(COC1=O)N1C(O)C3Cc5cc(C)c(OC)c(O)c5C(C21)N3C)OCO4 | yes (1) |
| Cc1cc(C)c(CNC(=O)c2cc(-c3ccc(CN4CCOCC4)cc3)cc3c2cnn3C2CCCC2)c(=O)[nH]1 + COc1cc2c(cc1O)CCNC21CSC2c3c(OC(C)=O)c(C)c4c(c3C(COC1=O)N1C(O)C3Cc5cc(C)c(OC)c(O)c5C(C21)N3C)OCO4 | no (0) |
| COc1cc(C)[nH]c(=O)c1CN1CCc2c(Cl)cc(C(OC)C3COC3)c(Cl)c2C1=O (stereo unspecified) + COc1cc2c(cc1O)CCNC21CSC2c3c(OC(C)=O)c(C)c4c(c3C(COC1=O)N1C(O)C3Cc5cc(C)c(OC)c(O)c5C(C21)N3C)OCO4 | no (0) |

Could you please tell me the result logged for COc1ccc([C@@H](O)c2cc(-c3ncnc4cc(N5CCOCC5)ccc34)c(F)cc2Cl)nn1 + COc1cc2c(cc1O)CCNC21CSC2c3c(OC(C)=O)c(C)c4c(c3C(COC1=O)N1C(O)C3Cc5cc(C)c(OC)c(O)c5C(C21)N3C)OCO4 in this assay?
no (0)

Assay result, entry CC(C)n1c(=O)n(C)c2cnc3cc(F)c(-c4ccc(OCCCN5CCCCC5)nc4)cc3c21 + COc1cc2c(cc1O)CCNC21CSC2c3c(OC(C)=O)c(C)c4c(c3C(COC1=O)N1C(O)C3Cc5cc(C)c(OC)c(O)c5C(C21)N3C)OCO4 — outcome?
no (0)

Record request — test call for [2H]c1nc(C)nc([2H])c1-c1cc(NC[C@@H](C)c2cccc3c(C(=O)NC)ccnc23)ncn1 + COc1cc2c(cc1O)CCNC21CSC2c3c(OC(C)=O)c(C)c4c(c3C(COC1=O)N1C(O)C3Cc5cc(C)c(OC)c(O)c5C(C21)N3C)OCO4
no (0)

---

# Test system: COR L88 complex tumor spheroid viability
# Protocol: Anticancer human tumor COR L88 cell line growth inhibition;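 further: compound exposure lasted 7 days before viability readout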
# Test parameters: curve of first compound; second compound 0.0949 µM
Endpoint label: IC50

Past entries and their recorded results:
| Compound | IC50 |
| --- | --- |
| Cn1ncnc1[C@H]1c2n[nH]c(=O)c3cc(F)cc(c23)N[C@@H]1c1ccc(F)cc1 + CC[C@@]1(O)C(=O)OCc2c1cc1n(c2=O)Cc2cc3c(CN(C)C)c(O)ccc3nc2-1 | < 9.49 nM |
| CC1COCCN1c1cc(-c2ccnn2C)c2ccnc(-c3ccn[nH]3)c2n1 (stereo not given) + CC[C@@]1(O)C(=O)OCc2c1cc1n(c2=O)Cc2cc3c(CN(C)C)c(O)ccc3nc2-1 | < 31.6 nM |
| O=C(c1cc(Cc2n[nH]c(=O)c3ccccc23)ccc1F)N1CCN(C(=O)C2CC2)CC1 + CC[C@@]1(O)C(=O)OCc2c1cc1n(c2=O)Cc2cc3c(CN(C)C)c(O)ccc3nc2-1 | < 94.9 nM |
| COc1cc(C)[nH]c(=O)c1CN1CCc2c(Cl)cc(C(OC)C3COC3)c(Cl)c2C1=O (stereo not given) + CC[C@@]1(O)C(=O)OCc2c1cc1n(c2=O)Cc2cc3c(CN(C)C)c(O)ccc3nc2-1 | < 31.6 nM |

Continue with the compound presented below.
Could you share which IC50 value was measured for CC(C)n1c(=O)n(C)c2cnc3cc(F)c(-c4ccc(OCCCN5CCCCC5)nc4)cc3c21 + CC[C@@]1(O)C(=O)OCc2c1cc1n(c2=O)Cc2cc3c(CN(C)C)c(O)ccc3nc2-1 ?
< 31.6 nM

---

# Test system: COR L88 complex tumor spheroid viability
# Protocol: Anticancer human tumor COR L88 cell line growth inhibition;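 further: compound exposure lasted 7 days before viability readout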;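 on viability, T/C: percent of DMSO vehicle-treated spheroids = 100%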
# Test parameters: second compound 1 µM; first compound 0.0316 µM; stronger effect = lower value
Endpoint label: viability, T/C (%)
Please reply with the bare figure in % and do not write the unit itself.

Consider the reported viability, T/C for these compounds:
| Compound | Endpoint label | Numeric result |
| --- | --- | --- |
| [2H]c1nc(C)nc([2H])c1-c1cc(NC[C@@H](C)c2cccc3c(C(=O)NC)ccnc23)ncn1 + Cn1nnc2c(C(N)=O)ncn2c1=O | viability, T/C | 97.1 |
| CC(C)n1c(=O)n(C)c2cnc3cc(F)c(-c4ccc(OCCCN5CCCCC5)nc4)cc3c21 + Cn1nnc2c(C(N)=O)ncn2c1=O | viability, T/C | 104 |

What does the data say about its viability, T/C? Entry: Cc1cc(C)c(CNC(=O)c2cc(-c3ccc(CN4CCOCC4)cc3)cc3c2cnn3C2CCCC2)c(=O)[nH]1 + Cn1nnc2c(C(N)=O)ncn2c1=O
102
